Test system: Brain
protocol.summary: AUC (0 to last) in Swiss mouse brain at 10 mg/kg, po
Format: ADME, organism-based
Parameters: time 0 - last, dose 10 mg/kg, route oral
cond: in vivo
measured.property: AUClast (ng·h/mL)

[
  {
    "compound.structure": "Oc1noc2cc(Cl)ccc12",
    "test.value": 139
  },
  {
    "compound.structure": "O=C(O)c1cc2sccc2[nH]1",
    "test.value": 302
  },
  {
    "compound.structure": "O=C(O)c1cc2occc2[nH]1",
    "test.value": 371
  }
]

---

target.entity: D-amino-acid oxidase (Homo sapiens, UniProt P14920)
Sequence (P14920 whole entry): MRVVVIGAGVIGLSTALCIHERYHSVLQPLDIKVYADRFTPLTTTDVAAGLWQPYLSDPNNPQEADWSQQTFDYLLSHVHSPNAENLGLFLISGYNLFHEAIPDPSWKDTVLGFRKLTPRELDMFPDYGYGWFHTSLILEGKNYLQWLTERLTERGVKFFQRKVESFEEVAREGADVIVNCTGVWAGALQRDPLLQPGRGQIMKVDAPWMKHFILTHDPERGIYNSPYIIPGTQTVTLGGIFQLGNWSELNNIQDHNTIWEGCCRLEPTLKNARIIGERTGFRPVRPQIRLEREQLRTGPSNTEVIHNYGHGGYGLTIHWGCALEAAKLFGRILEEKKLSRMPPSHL
protocol.summary: Inhibition of human recombinant DAAO expressed in Escherichia coli assessed as H2O2 production from D-serine degradation after 30 mins by fluorescence assay
pIC50: −log10 of the molar value.

[
  {
    "compound.structure": "O=C(O)c1cc2sccc2[nH]1",
    "target.entity": "D-amino-acid oxidase (Homo sapiens, UniProt P14920)",
    "pIC50": 7.92
  },
  {
    "compound.structure": "Cc1cc(C(=O)O)n[nH]1",
    "target.entity": "D-amino-acid oxidase (Homo sapiens, UniProt P14920)",
    "pIC50": 6.33
  }
]
